Tested on: A549
measurement.description: relative viability (normalised to negative control = 1, bortezomib = 0) (fraction); higher = less cytotoxic
setup.conditions: inflammatory serum-free RHB-A with cytokines + LPS; 5 d + 24 h CellTiter-Blue; compound 30 nM; GSK126 pretreatment: 5 uM GSK126
Structures can show the parent of a compound that is named as a salt.
observable: relative viability

{"compound": "CCN1CCN(C(=O)Cc2ccc(Nc3ncc(F)c(Nc4ccc(C(=O)Nc5ccccc5Cl)cc4)n3)cc2)CC1", "measured": 0.988}
{"compound": "O=C(O)CCCc1ccc(N(CCCl)CCCl)cc1", "measured": 0.933}
{"compound": "Cn1c(CCCC(=O)O)nc2cc(N(CCCl)CCCl)ccc21 [bendamustine hydrochloride]", "measured": 0.713}

====

Here the recorded relative viability is given for each entry.
System: A549
measurement.description: relative viability (normalised to negative control = 1, bortezomib = 0) (fraction); higher = less cytotoxic
setup.conditions: inflammatory serum-free RHB-A with cytokines + LPS; 5 d + 24 h CellTiter-Blue; compound 30 nM; GSK126 pretreatment: 5 uM GSK126
Where a name gives a salt, the structure may show the parent alone.

{"compound": "C1CN1c1nc(N2CC2)nc(N2CC2)n1", "relative viability": 0.834}
{"compound": "Cc1c(N)nc([C@H](CC(N)=O)NC[C@H](N)C(N)=O)nc1C(=O)N[C@H](C(=O)N[C@H](C)[C@@H](O)[C@H](C)C(=O)N[C@H](C(=O)NCCc1nc(-c2nc(C(=O)NCCC[S+](C)C)cs2)cs1)[C@@H](C)O)[C@@H](OC1OC(CO)C(O)C(O)C1OC1OC(CO)C(O)C(OC(N)=O)C1O)c1cnc[nH]1 (some centres not stated) [Bleomycin sulfate]", "relative viability": 0.821}
{"compound": "C=C1C[C@@H]2[C@H](CC[C@]3(C)C(=O)CC[C@@H]23)[C@@]2(C)C=CC(=O)C=C12", "relative viability": 0.797}
{"compound": "Oc1ncc(N(CCCl)CCCl)c(O)n1", "relative viability": 0.792}
{"compound": "Cc1ccccc1-n1c(Cn2ncc3c(N)ncnc32)nc2cccc(C)c2c1=O", "relative viability": 0.756}
{"compound": "N.N.[Cl][Pt][Cl] [Cisplatin]", "relative viability": 0.813}
{"compound": "Cc1ccccc1-n1c(Cn2cnc3c(N)ncnc32)nc2cccc(C)c2c1=O", "relative viability": 0.828}

====

relative viability values by entry
System: A549
measurement.description: relative viability (normalised to negative control = 1, bortezomib = 0) (fraction); higher = less cytotoxic
setup.conditions: inflammatory serum-free RHB-A with cytokines + LPS; 5 d + 24 h CellTiter-Blue; compound 300 nM; GSK126 pretreatment: none (vehicle)

{"molecular.string": "Oc1ncc(N(CCCl)CCCl)c(O)n1", "relative viability": 0.87}
{"molecular.string": "C=C1C[C@@H]2[C@H](CC[C@]3(C)C(=O)CC[C@@H]23)[C@@]2(C)C=CC(=O)C=C12", "relative viability": 0.971}
{"molecular.string": "Cc1ccccc1-n1c(Cn2cnc3c(N)ncnc32)nc2cccc(C)c2c1=O", "relative viability": 0.875}
{"molecular.string": "CCN1CCN(C(=O)Cc2ccc(Nc3ncc(F)c(Nc4ccc(C(=O)Nc5ccccc5Cl)cc4)n3)cc2)CC1", "relative viability": 0.671}
